Tested on: DU-145
Test: Cytotoxicity against human androgen-independent DU145 cells at 1 uM by MTT assay
Type: functional
Output 1 (yes) for records whose Activity is lower than 50%, 0 (no) for records at or above 50%.

- COMPOUND: "CC(O)(CSc1ccc(F)cc1)c1nc(-c2ccc(F)c(Cl)c2)no1 (stereo unspecified)"
  LABEL CLASS: "1 (yes)"
- COMPOUND: "CC(O)(CSc1ccc(Cl)cc1)c1nc(-c2ccc(F)c(Cl)c2)no1 (stereo unspecified)"
  LABEL CLASS: "0 (no)"
- COMPOUND: "CC(O)(CSc1ccc(F)cc1)c1nc(-c2ccc([N+](=O)[O-])c(C(F)(F)F)c2)no1 (stereo unspecified)"
  LABEL CLASS: "1 (yes)"
